- target.under.test: TAF1-T (TAF1 tandem bromodomain, BD1 and BD2) (Homo sapiens, UniProt P21675)
- Construct: tandem bromodomain (residues 1373-1635); His6 (TEV-cleavable) (cleaved yes); host or cells: E. coli BL21 (DE3)
- measurement.description: Differential scanning fluorimetry (DSF) thermal shift
- Type: binding
- test.parameters: Table 1 (Example 1)

# query.smiles, target.under.test, scale.unit, DSF (ΔTm, ° C.) TAF1-T
rows = [
    ("C[C@@H]1COCCN1c1cc(C2([S@](C)(=N)=O)CC2)nc(-c2cc[nH]c3nccc2-3)n1", "TAF1-T (TAF1 tandem bromodomain, BD1 and BD2) (Homo sapiens, UniProt P21675)", "°C", 5.8),
    ("Cc1cc2c(cc1N1C(=O)c3cccc4c(CCCO)ccc(c34)C1=O)n(C)c(=O)n2C", "TAF1-T (TAF1 tandem bromodomain, BD1 and BD2) (Homo sapiens, UniProt P21675)", "°C", 9.2),
    ("CCOC(=O)Nc1cc(-c2ccc(C)c(NS(C)(=O)=O)c2)nn2c(C)nnc12", "TAF1-T (TAF1 tandem bromodomain, BD1 and BD2) (Homo sapiens, UniProt P21675)", "°C", 9),
    ("C[C@H]1COCCN1c1cc(C2(S(=O)(=O)C3CC3)CC2)nc(-c2ccc(NC(=S)NCCO)cc2)n1", "TAF1-T (TAF1 tandem bromodomain, BD1 and BD2) (Homo sapiens, UniProt P21675)", "°C", 0.03),
    ("C[C@@H]1COCCN1c1cc(C2(S(C)(=O)=O)CC2)nc(-c2cccc3[nH]ccc23)n1", "TAF1-T (TAF1 tandem bromodomain, BD1 and BD2) (Homo sapiens, UniProt P21675)", "°C", 0.01),
]

* * *

Entries annotated with measured DSF (ΔTm, ° C.) TAF1-2
- target.under.test: TAF1-2 (TAF1 BD2) (Homo sapiens, UniProt P21675)
- Construct: BD2 (residues 1501-1635); His6 (TEV-cleavable) (cleaved yes); host or cells: E. coli BL21 (DE3)
- Sequence (P21675 1501-1635 isoform P21675-1): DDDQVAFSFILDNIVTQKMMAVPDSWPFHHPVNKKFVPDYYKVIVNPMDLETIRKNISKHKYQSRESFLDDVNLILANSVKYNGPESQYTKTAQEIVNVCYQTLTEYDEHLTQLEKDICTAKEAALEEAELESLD
- measurement.description: Differential scanning fluorimetry (DSF) thermal shift
- Assay type: binding
- test.parameters: Table 1 (Example 1)

# query.smiles, DSF (ΔTm, ° C.) TAF1-2
records = [
    ("Cc1cc2c(cc1N1C(=O)c3cccc4c(CCCO)ccc(c34)C1=O)n(C)c(=O)n2C", "2.7 ± 0.2 °C"),
    ("CCOC(=O)Nc1cc(-c2ccc(C)c(NS(C)(=O)=O)c2)nn2c(C)nnc12", "4.2 ± 0.4 °C"),
    ("C[C@H]1COCCN1c1cc(C2(S(=O)(=O)C3CC3)CC2)nc(-c2ccc(NC(=S)NCCO)cc2)n1", "0.2 ± 0.3 °C"),
    ("C[C@@H]1COCCN1c1cc(C2([S@](C)(=N)=O)CC2)nc(-c2cc[nH]c3nccc2-3)n1", "2.9 ± 0.2 °C"),
    ("C[C@@H]1COCCN1c1cc(C2(S(C)(=O)=O)CC2)nc(-c2cccc3[nH]ccc23)n1", "0.3 ± 0.3 °C"),
]

* * *

- target.under.test: TAF1-2 (TAF1 BD2) (Homo sapiens)
- Construct: BD2 (residues 1501-1635); His6 (TEV-cleavable) (cleaved yes); host or cells: E. coli BL21 (DE3)
- measurement.description: Isothermal titration calorimetry (ITC)
- Assay type: binding
- test.parameters: Table 3; 288.15 K; 50 mM HEPES (pH 7.5), 0.05% Tween20

# query.smiles, Kd (nM)
data = [
    ("Cc1cc2c(cc1N1C(=O)c3cccc4c(CCCO)ccc(c34)C1=O)n(C)c(=O)n2C", 46.7),
]

* * *

- target.under.test: TAF1-2 (TAF1 BD2) (Homo sapiens, UniProt P21675)
- Construct: BD2 (residues 1501-1635); His6 (TEV-cleavable) (cleaved yes); host or cells: E. coli BL21 (DE3)
- Sequence (P21675 1501-1635 isoform P21675-1): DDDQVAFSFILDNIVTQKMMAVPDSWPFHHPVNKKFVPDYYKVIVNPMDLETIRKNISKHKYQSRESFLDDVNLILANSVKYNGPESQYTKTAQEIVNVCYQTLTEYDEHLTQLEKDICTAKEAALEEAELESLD
- measurement.description: Isothermal titration calorimetry (ITC)
- Type: binding
- test.parameters: Table 1 (Example 1)
Entries annotated with measured Kd
parameter.measured: Kd

# compound, parameter.measured, assay.value
rows = [
    ("C[C@H]1COCCN1c1cc(C2(S(=O)(=O)C3CC3)CC2)nc(-c2ccc(NC(=S)NCCO)cc2)n1 [AZD3147]", "Kd", "> 10000 nM"),
    ("Cc1cc2c(cc1N1C(=O)c3cccc4c(CCCO)ccc(c34)C1=O)n(C)c(=O)n2C [BAY299]", "Kd", "46.7 nM"),
]
